- Experimental system: HDM2 (Homo sapiens, UniProt Q00987)
- Construct: Thioredoxin (N); made in house; host or cells: E. coli strain BL21(DE3)Rosetta
- Sequence (Q00987 17-125): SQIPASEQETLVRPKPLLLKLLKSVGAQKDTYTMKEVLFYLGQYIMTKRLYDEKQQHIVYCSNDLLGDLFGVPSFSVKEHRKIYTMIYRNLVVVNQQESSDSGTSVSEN
- Measurement protocol: HDM2 FRET assay (inhibition of binding of FITC labeled p53-pocket peptide to HDM2)
- Measurement context: Table 11; read-out: FRET IC50
Could you please report measured IC50 for the items listed next?
State just the number; it will be interpreted in nM.

What IC50 value was documented for this molecule, COCC1COCCN1c1nc2nc(-c3noc(=O)[nH]3)nc(N[C@H](C)C3CCC3)c2n1C[C@H]1CC[C@H](C)CC1 (single isomer, unassigned) [Example 11.150] ?
6.73

What IC50 value was documented for this molecule, CC1CCCN(c2nc3nc(-c4noc(=O)[nH]4)nc(N[C@H](C)C4CCC4)c3n2C[C@H]2CC[C@H](C)CC2)C1c1ccccc1 (stereo partly shown) ?
6.34

What IC50 value was documented for this molecule, CC(C)CC1CCCCN1c1nc2nc(-c3noc(=O)[nH]3)nc(N[C@H](C)C3CCC3)c2n1C[C@H]1CC[C@H](C)CC1 (stereo partly shown) ?
6.14

What IC50 value was documented for this molecule, CC1CCCCN1c1nc2nc(-c3noc(=O)[nH]3)nc(N[C@H](C)C3CCC3)c2n1C[C@H]1CC[C@H](C)CC1 (stereo partly shown) ?
7.27

###

- Experimental system: HDM2 (Homo sapiens, UniProt Q00987)
- Construct: Thioredoxin (N); made in house; host or cells: E. coli strain BL21(DE3)Rosetta
- Measurement protocol: HDM2 FRET assay (inhibition of binding of FITC labeled p53-pocket peptide to HDM2)
- Measurement context: Table 10; read-out: FRET IC50
Result type: pIC50
# log scale: pIC50 equals minus log10 of the concentration in mol/L

What pIC50 value was documented for this compound, C[C@@H](Nc1nc(C(=O)O)nc2nc(C(=O)N3CCCC(C)(C)C3)n(Cc3ccc(C(F)(F)F)cc3)c12)C1CCC1 [Example 10.21] ?
7.65

What pIC50 value was documented for this compound, C[C@@H](Nc1nc(C(=O)O)nc2nc(N(CC3CC3)[C@@H](C)c3ccccc3)n(Cc3ccc(C(F)(F)F)cc3)c12)C1CCC1 [Example 10.29] ?
7.45

What pIC50 value was documented for this compound, C[C@@H](Nc1nc(C(=O)O)nc2nc(N(C)C(=O)C3CCCCC3)n(Cc3ccc(C(F)(F)F)cc3)c12)C1CCC1 [Example 10.4] ?
7.85

What pIC50 value was documented for this compound, CCN1CCCCC1c1nc2nc(C(=O)O)nc(N[C@H](C)C3CCC3)c2n1Cc1ccc(C(F)(F)F)cc1 (stereo partly drawn) [Example 10.25] ?
7.45

What pIC50 value was documented for this compound, C=CCN(c1nc2nc(C(=O)O)nc(N[C@H](C)C3CCC3)c2n1Cc1ccc(C(F)(F)F)cc1)C(C)c1ccccn1 (stereo partly drawn) [Example 10.30] ?
8.04

What pIC50 value was documented for this compound, CCCN(c1nc2nc(C(=O)O)nc(N[C@H](C)C3CCC3)c2n1Cc1ccc(C(F)(F)F)cc1)C(C)c1ccccn1 (stereo partly drawn) [Example 10.32] ?
8.43

###

- Experimental system: HDM2 (Homo sapiens, UniProt Q00987)
- Construct: Thioredoxin (N); made in house; host or cells: E. coli strain BL21(DE3)Rosetta
- Measurement protocol: HDM2 FRET assay (inhibition of binding of FITC labeled p53-pocket peptide to HDM2)
- Measurement context: Table 9; read-out: FRET IC50
Could you please report measured pIC50 for the items listed next?
# log scale: pIC50 equals minus log10 of the concentration in mol/L

What pIC50 value was documented for this compound, CC(CN1CCCC1)CN(C)c1nc2nc(-c3noc(=O)[nH]3)nc(N[C@H](C)C3CCC3)c2n1Cc1ccc(C(F)(F)F)cc1 (some centres unmarked) ?
7.20

What pIC50 value was documented for this compound, C[C@@H](Nc1nc(-c2noc(=O)[nH]2)nc2nc(N(C)CCc3ccccc3)n(Cc3ccc(C(F)(F)F)cc3)c12)C1CCC1 ?
7.01

What pIC50 value was documented for this compound, C[C@@H](Nc1nc(C(=O)O)nc2nc(N3CCCCC3c3cccc(F)c3)n(Cc3ccc(C(F)(F)F)cc3)c12)C1CCC1 (some centres unmarked) ?
7.85

What pIC50 value was documented for this compound, CC(C)C1CCCN1c1nc2nc(-c3noc(=O)[nH]3)nc(N[C@H](C)C3CCC3)c2n1Cc1ccc(C(F)(F)F)cc1 (some centres unmarked) ?
7.99

What pIC50 value was documented for this compound, C[C@@H](Nc1nc(C(=O)O)nc2nc(N3CCCC3c3ccccc3)n(Cc3ccc(C(F)(F)F)cc3)c12)C1CCC1 (some centres unmarked) [Example 9.52] ?
7.50
